Test system: lacZ under control of the tetA promoter (PtetA) in E. coli KM3
Assay type: cell-based
ASSAY SETUP: Table 4; sulfometuron 20 ppm; 48 hrs at 30° C.
MEASURED PARAMETER: relative β-galactosidase activity, inducer Sm
Quick one: just the number, no unit, thanks!

L1-2: SU-responsive TetR(B) ligand binding domain variant, library L1 hit, SEQ ID NO: 3 (protein, Sulfonylurea responsive repressor L1-02) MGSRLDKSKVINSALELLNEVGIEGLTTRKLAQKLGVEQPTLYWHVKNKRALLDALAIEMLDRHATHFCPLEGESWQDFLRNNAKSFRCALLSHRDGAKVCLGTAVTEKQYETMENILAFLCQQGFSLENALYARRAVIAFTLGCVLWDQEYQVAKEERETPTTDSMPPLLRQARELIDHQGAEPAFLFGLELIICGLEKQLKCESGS = 4.7

Shift focus to the following entry.
## Task // query relative β-galactosidase activity, inducer Sm value for entry L1-38: SU-responsive TetR(B) variant, library L1 hit (protein, Sulfonylurea responsive repressor L1-38) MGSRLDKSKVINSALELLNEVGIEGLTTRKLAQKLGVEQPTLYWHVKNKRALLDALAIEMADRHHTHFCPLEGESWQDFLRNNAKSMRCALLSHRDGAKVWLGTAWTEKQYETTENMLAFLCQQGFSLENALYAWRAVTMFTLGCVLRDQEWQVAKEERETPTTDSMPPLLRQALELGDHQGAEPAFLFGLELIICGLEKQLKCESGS
## Result 18.3

FYI, the data here is from patent US9206432B2.
